System: HCT116
Assay: efficacy (fitted maximal change in viability relative to DMSO control); higher = less cytotoxic (negative = loss of viability)
Conditions: 48 h
Counter-ions that a name gives are not always drawn.
Hi there, I'd appreciate the recorded efficacy for every entry that follows.
One number for each entry, in %.

compound: COC(=O)C[C@](O)(CCCC(C)(C)O)C(=O)O[C@@H]1C(OC)=CC23CCCN2CCc2cc4c(cc2[C@H]13)OCO4 (some centres not stated) [Omacetaxine mepesuccinate]
readout-name: efficacy
unit-of-measurement: %
reported-measurement: -68.3

State the recorded efficacy for every item in the following list.
1. O=C(Nc1cccc(C(F)(F)F)c1)c1cccc2cc(Oc3cc(CO)ncn3)ccc12
2. CC(C)(O)c1coc([S+](=O)([O-])NC(=O)Nc2c3c(cc4c2CCC4)CCC3)c1
3. CCCCCCCN(CC)CCCC(O)c1ccc(N[S+](C)(=O)[O-])cc1 (configuration not stated) [Ibutilide fumarate]

RESULT:
15.5
7.83
-59.1

Batch of 3 compounds: report efficacy for each.
1. Cc1cc(Nc2cc(N3CCN(C)CC3)nc(Sc3ccc(NC(=O)C4CC4)cc3)n2)[nH]n1
2. CC[C@]1(O)C[C@H]2CN(CCC3=C([NH]C4=C3C=CC=C4)[C@@](C2)(C(=O)OC)C5=C(OC)C=C6N(C)[C@H]7[C@](O)([C@H](OC(C)=O)[C@]8(CC)\C=C/CN9CC[C@]7([C@H]89)C6=C5)C(=O)OC)C1 [VINBLASTINE SULFATE]
3. CC(=O)OCC(=O)[C@@]1(O)CC[C@H]2[C@@H]3CCC/4=C/C(=O)CC[C@]4(C)[C@H]3C(=O)C[C@]12C [Cortisone acetate]

RESULT:
1: -95.2; 2: -53.2; 3: 22.5

====

Tested on: HCT116
Assay: efficacy (fitted maximal change in viability relative to DMSO control); higher = less cytotoxic (negative = loss of viability)
Settings: 48 h
Please go through the items and note down their efficacy.
Write your answer as a measured quantity: the number, then the unit.

Below, 5 molecules whose answers are already recorded.
molecule: C\C1=C(\SSC1=S)C2=CN=CC=N2 [Oltipraz]
efficacy: -26.5%
//
molecule: COC(=O)[C@@H]1CC/2=C/C(=O)CC[C@]2(C)[C@@]34O[C@@H]3C[C@@]5(C)[C@@H](CC[C@@]56CCC(=O)O6)[C@H]14 [Eplerenone]
efficacy: -6.15%
//
molecule: Oc1cc(-c2nc(-c3ccccc3)[nH]c2-c2ccncc2)ccc1Cl
efficacy: -90.3%
//
molecule: CN[C@@H](C)C(=O)N[C@H](C(=O)N1CCC[C@H]1C(=O)Nc1snnc1-c1ccccc1)C1CCCCC1 [GDC-0152]
efficacy: -13.4%
//
molecule: O=C(Nc1cc(C(F)(F)F)cc(C(F)(F)F)c1)c1cc(Cl)ccc1O [IMD-0354]
efficacy: -88.7%

Please look at the items below and tell me efficacy for each one, in order.
1. C/C=C(\C)C(=O)N[C@@H](c1ccccc1)[C@@H](O)C(=O)O[C@H]1C[C@@]2(O)[C@@H](OC(=O)c3ccccc3)[C@@H]3[C@]4(OC(C)=O)CO[C@@H]4C[C@H](O)[C@@]3(C)C(=O)[C@H](OC(C)=O)C(=C1C)C2(C)C [Cephalomannine]
2. COc1ccc(C[C@@H](C)[C@@H](C)Cc2ccc(OC)c(OC)c2)cc1OC [Terameprocol]
3. CO[C@H]1O[C@@H]2O[C@@]3(C)CC[C@H]4[C@H](C)CC[C@@H]([C@H]1C)[C@@]24OO3 [Artemether]

RESULT:
-63.5%
-51.5%
-12.5%

====

Test system: HCT116
Experiment: AC50 cell viability (CellTiter-Glo); higher = less potent
Conditions: 48 h
Criterion: AC50 cell viability strictly less than 0.6 µM. Met: satisfied. Not met: not satisfied.

Use the examples below as a reference point.
compound: NC1CCCN(c2c(/C=C3\SC(=O)NC3=O)cccc2-c2ccccc2)C1 (stereo unspecified) [AZD-1208]
target-system: HCT116
label: not satisfied

compound: Cc1cn(-c2cc(NC(=O)c3ccc(C)c(Nc4nccc(-c5cccnc5)n4)c3)cc(C(F)(F)F)c2)cn1 [Nilotinib]
target-system: HCT116
label: not satisfied

compound: CC[C@]12\C=C/CN3CC[C@]4([C@@H](N(C)C5=CC(=C(C=C45)[C@]6(C[C@H]7C[C@H](CN(C7)CC8=C6[NH]C9=C8C=CC=C9)C(C)(F)F)C(=O)OC)OC)[C@](O)([C@@H]1OC(C)=O)C(=O)OC)[C@H]23 [Vinflunine]
target-system: HCT116
label: satisfied

QUERY: Dear colleague, could you confirm whether AC50 cell viability of CNC(=O)c1cccc(-c2ccc3c(N4CCOC[C@@H]4C)nc(N4CCOC[C@@H]4C)nc3n2)c1 [Vistusertib] falls below 0.6 µM? Thanks.
RESULT: satisfied

QUERY: Could you please tell me whether AC50 cell viability recorded for COc1cc(C(=O)NC(=N)Nc2ccc(C)c(NC(=O)c3ccc(-c4ccccc4)cc3)c2)cc(OC)c1OC [MRT-83] is less than 0.6 µM?
RESULT: not satisfied

====

Test system: HCT116
Test: AC50 cell viability (CellTiter-Glo); higher = less potent
Conditions: 48 h
Where a name gives a salt, the structure may show the parent alone.
readout-name: log10 of AC50 cell viability (log10 of the value in µM)
Use the decimal logarithm of AC50 cell viability (µM).

Worked examples, 5 molecules total:
molecule: Cc1c(CN2CCC(Nc3ncnc4sc(CC(F)(F)F)cc34)CC2)ccc2c1cc(C#N)n2Cc1cn[nH]c1
target-system: HCT116
reported-measurement: 0.57
//
molecule: CCC[C@H](Nc1nc(-c2ccc(NC(=O)NCC)c(OC)c2)ncc1C)c1cccnc1 [Lexibulin hydrochloride]
target-system: HCT116
reported-measurement: -1.13
//
molecule: NC1=NC=C(C=C1)C2=CC=C3N=CC\4=C(N(C(=O)\C=C4)C5=CC(=CC=C5)C(F)(F)F)C3=C2
target-system: HCT116
reported-measurement: -0.78
//
molecule: FC1=CC=C(C=C1)N2/C=C\C=C(C(=O)NC3=CC=C(OC4=C5C=C[NH]C5=NC=C4)C(=C3)F)/C2=O
target-system: HCT116
reported-measurement: 1.27
//
molecule: Cc1cc(Nc2cc(CN3CCOCC3)c3nc(C)c(Cc4ccc(Cl)cc4F)n3n2)[nH]n1
target-system: HCT116
reported-measurement: 0.77

Answer for every listed entry: what is its log10 of AC50 cell viability? The entries follow.
1. CCNC(=O)C[C@H]1/N=C(/C2=CC=C(Cl)C=C2)C3=CC(=CC=C3[N]4C(=NN=C14)C)OC
2. CCN(CC)CCNC(=O)c1c(C)[nH]c(/C=C2\C(=O)Nc3ccc(F)cc32)c1C [Sunitinib malate]
3. Cc1cncc2cccc([S+](=O)([O-])N3CCCN(C(=O)CN)C[C@@H]3C)c12

RESULT:
[1.17, 0.52, 0.77]

====

Tested on: HCT116
Assay: efficacy (fitted maximal change in viability relative to DMSO control); higher = less cytotoxic (negative = loss of viability)
Details: 48 h
Where a name gives a salt, the structure may show the parent alone.
Please respond with reported efficacy for every item in the list.
Numbers only, in %.

compound: CC(=O)c1cnc2ccc(-c3cc(Cl)c(O)c(Cl)c3)nc2c1N[C@H]1CC[C@H](CN(C)C)CC1
target-system: HCT116
efficacy / %: -70.5
//
compound: CCOc1ccccc1N/N=C1/C(=O)N(c2nc(-c3ccccc3)cs2)N=C1C
target-system: HCT116
efficacy / %: -7.98
//
compound: Cn1c(=O)c2c(ncn2CC(O)CO)n(C)c1=O (stereo not drawn)
target-system: HCT116
efficacy / %: -13
//
compound: CCN1\C=C(C(O)=O)/C(=O)C2=C1C(=C(N3CCNC(C)C3)C(=C2)F)F (stereo not drawn) [Lomefloxacin hydrochloride]
target-system: HCT116
efficacy / %: -18.8
//
compound: N[S+](=O)([O-])OC[C@@H]1C[C@@H](n2ccc3c(N[C@H]4CCc5ccccc54)ncnc32)C[C@@H]1O
target-system: HCT116
efficacy / %: -65.7
//
compound: CCNCc1nc2c(N)nc3ccccc3c2n1CC(C)(C)O
target-system: HCT116
efficacy / %: -62
//
compound: O=C(O)CCNc1cc(N2CCc3ccccc3CC2)nc(-c2cccnc2)n1
target-system: HCT116
efficacy / %: -21.7
//
compound: C[N]1C=C(C=N1)C2=CC=C3N=CC\4=C(N(C(=O)\C=C4)C5=CC6=C(CCN6C(=O)C=C)C=C5)C3=C2
target-system: HCT116
efficacy / %: -78.5
//
compound: CC[C@@]1(O)C(=O)OC/C2=C1/C=C3\N(CC4=C5[C@@H](N)CCC6=C5C(=CC(=C6C)F)N=C34)C2=O
target-system: HCT116
efficacy / %: -64
//
compound: Cc1cccc(Nc2nc(N[C@@H]3CCCC[C@@H]3N)ncc2C(N)=O)c1
target-system: HCT116
efficacy / %: -94.8

Give me efficacy for each of these compounds, listed below.
1. C[C@@]12O[C@@H](C[C@]1(O)CO)n1c3ccccc3c3c4c(c5c6ccccc6n2c5c31)CNC4=O
2. COc1cccc2c1CCCC2CCCN1CCN(C2CCCCC2)CC1 (stereo not drawn)
3. FC(F)(F)c1ccc(/C=C/c2nc(COc3ccc(CCCCn4ccnn4)cc3)co2)cc1
4. NC(=O)c1cc(F)cc2c1C(=O)N(C1CCN(C3CCC(F)(F)CC3)CC1)C2

RESULT:
1. -63.8
2. -91.3
3. -38.5
4. -18.7

For the 4 compounds below, give their efficacy values.
1. OC[C@H]1O[C@H](C[C@@H]1O)N2\C=C(\I)C(=O)NC2=O
2. O=C(/C=C/C=C/c1ccc2c(c1)OCO2)N1CCCCC1
3. C\C1=C(\C=C(\C#N)C(=O)N1)C2=CC=NC=C2
4. C[S+](=O)([O-])N1CCc2c(-c3cnc(N)nc3)nc(N3CCOCC3)nc21

RESULT:
[-38.3, -46, -8.82, -56.8]
